conditions: in n-hexane, 288.15 K
measured metric: solubility (mole fraction)
Numbers only.

Indicate its recorded solubility (mole fraction); the compound in question is CC(C)(C)C(=O)C(Oc1ccc(Cl)cc1)n1cncn1 (stereo unspecified)
0.000262

* * *

conditions: in cyclohexane, 313.15 K
measured metric: solubility (mole fraction)
One number for each entry.

Indicate its recorded solubility (mole fraction); the molecule in question is CC(C)(C)C(=O)C(Oc1ccc(Cl)cc1)n1cncn1 (stereo unspecified)
0.0315

* * *

conditions: in p-xylene, 293.15 K
measured metric: solubility (mole fraction)
One number for each entry.

Indicate its recorded solubility (mole fraction); the molecule in question is CC(C)(C)C(=O)C(Oc1ccc(Cl)cc1)n1cncn1 (stereo unspecified)
0.0846

Where do the numbers come from? From BigSolDB 2.1.
